test: pKa value was determined; format: physicochemical
experimental readout: pKa
Write no unit; give the number alone.

Entry under review: NS(=O)(=O)Oc1ccc(C(=O)OC2CCCCC2)cc1 . Reported pKa?
8.81

And what about the compound C[C@]12CC[C@@H]3c4ccc(OS(N)(=O)=O)cc4CCC3[C@@H]1CCC2=O (single isomer, unassigned) [EMATE] ?
8.37

And what about the compound Cc1cc(=O)oc2cc(OS(N)(=O)=O)ccc12 ?
8

And what about the compound NS(=O)(=O)Oc1ccc(C(=O)OC2CCCCCCC2)cc1 ?
8.09

And what about the compound NS(=O)(=O)Oc1ccc(C(=O)OC2CCCC2)cc1 ?
8.73
